# assay_target: AR / CBP ternary complex (Homo sapiens, UniProt P10275+Q92793)
# Sequence (P10275 whole entry): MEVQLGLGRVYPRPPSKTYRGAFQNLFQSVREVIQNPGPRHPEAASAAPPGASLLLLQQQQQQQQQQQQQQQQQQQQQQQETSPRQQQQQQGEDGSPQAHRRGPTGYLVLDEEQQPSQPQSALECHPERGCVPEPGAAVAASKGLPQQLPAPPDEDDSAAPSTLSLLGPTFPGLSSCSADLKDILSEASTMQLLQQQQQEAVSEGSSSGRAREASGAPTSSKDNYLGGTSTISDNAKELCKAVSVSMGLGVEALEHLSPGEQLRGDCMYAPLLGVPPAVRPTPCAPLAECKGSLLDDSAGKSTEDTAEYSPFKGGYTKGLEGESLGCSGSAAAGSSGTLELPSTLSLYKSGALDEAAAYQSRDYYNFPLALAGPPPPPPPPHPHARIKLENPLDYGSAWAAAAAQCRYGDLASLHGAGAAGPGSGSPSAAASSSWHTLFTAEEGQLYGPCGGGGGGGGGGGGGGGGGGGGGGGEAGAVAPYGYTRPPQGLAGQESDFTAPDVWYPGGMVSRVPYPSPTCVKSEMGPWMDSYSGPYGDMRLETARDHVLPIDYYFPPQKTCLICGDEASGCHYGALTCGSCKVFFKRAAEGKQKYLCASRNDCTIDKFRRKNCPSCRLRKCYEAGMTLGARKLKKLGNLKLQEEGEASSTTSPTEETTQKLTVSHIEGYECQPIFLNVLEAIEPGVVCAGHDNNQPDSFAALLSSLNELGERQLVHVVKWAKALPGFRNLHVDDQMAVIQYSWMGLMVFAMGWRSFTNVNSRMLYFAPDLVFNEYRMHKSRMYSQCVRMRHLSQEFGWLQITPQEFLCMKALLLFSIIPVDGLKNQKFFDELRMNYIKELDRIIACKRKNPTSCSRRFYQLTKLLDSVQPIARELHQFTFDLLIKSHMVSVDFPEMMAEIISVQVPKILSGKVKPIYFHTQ
# Sequence (Q92793 2-2442): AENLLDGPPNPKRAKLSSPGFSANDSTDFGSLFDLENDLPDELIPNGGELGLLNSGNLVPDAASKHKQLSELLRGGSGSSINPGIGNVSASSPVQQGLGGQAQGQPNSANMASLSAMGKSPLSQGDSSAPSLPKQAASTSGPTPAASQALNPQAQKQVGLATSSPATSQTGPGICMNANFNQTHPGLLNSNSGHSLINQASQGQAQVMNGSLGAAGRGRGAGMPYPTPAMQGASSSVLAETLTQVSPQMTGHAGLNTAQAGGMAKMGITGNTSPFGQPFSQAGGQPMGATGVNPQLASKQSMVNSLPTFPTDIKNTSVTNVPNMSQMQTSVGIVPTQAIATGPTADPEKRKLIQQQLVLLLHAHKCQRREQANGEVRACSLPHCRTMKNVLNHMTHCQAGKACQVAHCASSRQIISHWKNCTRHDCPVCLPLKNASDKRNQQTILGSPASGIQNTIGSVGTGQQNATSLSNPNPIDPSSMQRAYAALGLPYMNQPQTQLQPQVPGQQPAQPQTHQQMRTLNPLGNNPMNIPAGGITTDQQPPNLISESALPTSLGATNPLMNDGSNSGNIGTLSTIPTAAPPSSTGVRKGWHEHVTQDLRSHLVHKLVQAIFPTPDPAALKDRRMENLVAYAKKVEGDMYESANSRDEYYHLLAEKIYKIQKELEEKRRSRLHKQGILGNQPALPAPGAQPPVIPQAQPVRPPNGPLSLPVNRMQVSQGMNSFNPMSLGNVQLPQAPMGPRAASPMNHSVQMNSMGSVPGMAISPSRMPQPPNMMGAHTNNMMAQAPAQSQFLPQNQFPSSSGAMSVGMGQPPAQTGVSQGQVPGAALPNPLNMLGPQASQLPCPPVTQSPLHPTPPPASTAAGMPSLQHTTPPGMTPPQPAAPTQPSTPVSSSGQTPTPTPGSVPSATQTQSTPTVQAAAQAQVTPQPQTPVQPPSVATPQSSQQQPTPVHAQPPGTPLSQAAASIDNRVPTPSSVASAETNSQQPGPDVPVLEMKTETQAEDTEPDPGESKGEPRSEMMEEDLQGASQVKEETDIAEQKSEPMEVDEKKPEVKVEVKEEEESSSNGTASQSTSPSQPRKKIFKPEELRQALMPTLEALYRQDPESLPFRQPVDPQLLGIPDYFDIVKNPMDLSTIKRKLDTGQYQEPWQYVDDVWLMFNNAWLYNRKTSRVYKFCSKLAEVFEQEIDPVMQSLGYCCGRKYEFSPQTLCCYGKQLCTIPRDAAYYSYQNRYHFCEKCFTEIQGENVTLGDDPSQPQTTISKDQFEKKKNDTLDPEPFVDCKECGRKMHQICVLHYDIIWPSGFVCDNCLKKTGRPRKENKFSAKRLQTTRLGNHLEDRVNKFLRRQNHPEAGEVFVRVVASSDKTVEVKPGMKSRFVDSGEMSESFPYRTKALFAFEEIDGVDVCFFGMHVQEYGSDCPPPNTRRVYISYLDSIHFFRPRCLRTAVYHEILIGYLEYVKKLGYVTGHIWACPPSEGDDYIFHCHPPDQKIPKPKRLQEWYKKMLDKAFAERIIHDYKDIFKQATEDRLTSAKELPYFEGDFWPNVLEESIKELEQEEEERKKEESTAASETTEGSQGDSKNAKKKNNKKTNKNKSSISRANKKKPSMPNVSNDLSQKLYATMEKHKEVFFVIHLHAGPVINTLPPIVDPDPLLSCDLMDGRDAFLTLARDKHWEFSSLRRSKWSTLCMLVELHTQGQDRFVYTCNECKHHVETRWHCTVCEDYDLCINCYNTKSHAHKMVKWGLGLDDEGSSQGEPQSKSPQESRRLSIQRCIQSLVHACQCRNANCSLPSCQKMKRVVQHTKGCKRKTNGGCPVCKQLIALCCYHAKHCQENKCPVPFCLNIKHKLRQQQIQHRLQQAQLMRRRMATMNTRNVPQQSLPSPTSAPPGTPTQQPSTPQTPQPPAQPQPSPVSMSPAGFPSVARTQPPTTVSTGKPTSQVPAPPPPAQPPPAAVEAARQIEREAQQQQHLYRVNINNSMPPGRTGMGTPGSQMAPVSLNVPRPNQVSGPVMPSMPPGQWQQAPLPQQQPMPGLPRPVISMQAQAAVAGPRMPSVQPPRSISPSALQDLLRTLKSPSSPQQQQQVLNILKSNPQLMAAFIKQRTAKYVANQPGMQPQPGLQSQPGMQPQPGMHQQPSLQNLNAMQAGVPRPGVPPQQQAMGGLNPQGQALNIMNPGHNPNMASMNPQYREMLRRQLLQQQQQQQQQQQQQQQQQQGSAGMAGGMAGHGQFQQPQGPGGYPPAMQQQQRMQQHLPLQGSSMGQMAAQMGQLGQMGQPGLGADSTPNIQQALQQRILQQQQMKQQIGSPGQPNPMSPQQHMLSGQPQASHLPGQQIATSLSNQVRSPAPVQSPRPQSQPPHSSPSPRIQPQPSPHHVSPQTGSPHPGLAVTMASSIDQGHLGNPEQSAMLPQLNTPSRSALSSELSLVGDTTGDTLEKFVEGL
# test: Ternary complex formation assay (sandwich ELISA, AR capture, CBP antibody detection) in VCaP cell lysates
# Assay type: cell-based
# run_conditions: treated 1.5 hours, rabbit CBP or p300 antibody detection, average, read-out: Average Ternary Complex
pEC50: −log10 of the molar value.
endpoint_label: pEC50

Some solved entries appear below for comparison.
molecule: Cn1cc(-c2cc3cccc(-c4cc(C5=CCN(CC6CCN(c7ccc(C(=O)N[C@H]8CC[C@H](Oc9ccc(C#N)c(Cl)c9)CC8)nn7)CC6)CC5)c5c(c4)n(C)c(=O)n5C)c3cn2)cn1
assay_target: AR / CBP ternary complex (Homo sapiens, UniProt P10275+Q92793)
pEC50: > 9.00

molecule: CC(=O)N1CCc2c(c(-c3cccc4cc(-c5cnn(CCC6CCN(c7ccc(C(=O)N[C@H]8CC[C@H](Oc9ccc(C#N)c(Cl)c9)CC8)nn7)CC6)c5)ncc34)nn2C2COC2)C1
assay_target: AR / CBP ternary complex (Homo sapiens, UniProt P10275+Q92793)
pEC50: > 9.00

molecule: CC(=O)N1CCc2c(c(N3CCCc4cc(-c5cnn(C)c5)c(C(F)F)cc43)nn2C2CCN(CC3CCN(c4ccc(C(=O)N[C@H]5CC[C@H](Oc6ccc(C#N)c(Cl)c6)CC5)nn4)CC34CC4)CC2)C1 (stereo partly drawn)
assay_target: AR / CBP ternary complex (Homo sapiens, UniProt P10275+Q92793)
pEC50: > 9.00

Report pEC50 for each item below.
1. CC(=O)N1CCc2c(c(-c3cccc4cc(-c5cnn(C)c5)ncc34)nn2C2CCN(CC3CCN(c4ccc(C(=O)N[C@H]5CC[C@H](Oc6ccc(C#N)c(Cl)c6)CC5)nn4)CC3)CC2)C1
2. CC(=O)N1CCc2c(c(-c3cccc4cc(-c5cnn(CC6CCN(c7ccc(C(=O)N[C@H]8CC[C@H](Oc9ccc(C#N)c(Cl)c9)CC8)nn7)CC6)c5)ncc34)nn2C2CCOCC2)C1

Data returned:
["> 9.00", "> 9.00"]

----------
# assay_target: AR / CBP ternary complex (Homo sapiens, UniProt P10275+Q92793)
# test: Ternary complex formation assay (sandwich ELISA, AR capture, CBP antibody detection) in VCaP cell lysates
# Type: cell-based
# run_conditions: treated 1.5 hours, rabbit CBP or p300 antibody detection, average, read-out: Average Ternary Complex
pEC50: −log10 of the molar value.
endpoint_label: pEC50

molecule: CC(=O)N1CCc2c(c(N3CCCc4cc(-c5cnn(C)c5)c(C(F)F)cc43)nn2[C@H]2CCC3(CC2)C[C@H](Oc2ccc(C(=O)N[C@H]4CC[C@H](Oc5ccc(C#N)c(Cl)c5)CC4)nn2)C3)C1 (mixture of isomers) [Compound 301]
assay_target: AR / CBP ternary complex (Homo sapiens, UniProt P10275+Q92793)
meas_value: > 9.00

Batch request: pEC50 for each of the following molecules.
1. CC(=O)N1CCc2c(c(N3CCCc4cc(-c5cnn(C)c5)c(C(F)F)cc43)nn2[C@H]2CC[C@@H](CN3CCN(c4ccc(C(=O)N[C@H]5CC[C@H](Oc6ccc(C#N)c(Cl)c6)CC5)nn4)CC3)CC2)C1
2. CC(=O)N1CCc2c(c(-c3cccc4cc(-c5cnn(CCOC6CCN(c7ccc(C(=O)N[C@H]8CC[C@H](Oc9ccc(C#N)c(Cl)c9)CC8)nn7)CC6)c5)ncc34)nn2C2CCOCC2)C1

Data returned:
1: > 9.00; 2: > 9.00
